I'd be grateful if you could share measured growth for these entries.
tested on: E. coli TESEC Mtb Alr; assay: growth (OD600 after 10 h); higher = more growth (less inhibition); conditions: arabinose 100000 nM; compound 0.1 mM; raw OD600 reference: median of DMSO wells 0.201, cell-free background 0.041
Counter-ions that a name gives are not always drawn.
Give bare numbers.

compound	test_system	value_kind	measured_number
O=C(c1ccc(F)cc1)C1CCN(CCn2c(=O)[nH]c3ccccc3c2=O)CC1 [Ketanserin tartrate hydrate]	E. coli TESEC Mtb Alr	growth	0.221

# batch size: 3; output growth per entry
1. Cc1ccc(C(=O)c2ccc(CC(=O)O)n2C)cc1 [Tolmetin sodium salt dihydrate]
2. CCN(CC)C(=O)C1(c2ccccc2)CC1CN (stereo not drawn) [Milnacipran hydrochloride]
3. O=C1OC(CN2CCOCC2)CN1/N=C/c1ccc([N+](=O)[O-])o1 (stereo not drawn) [Furaltadone hydrochloride]

## Result
1: 0.169; 2: 0.202; 3: 0.0417

* * *

system: E. coli TESEC Mtb Alr; assay: growth (OD600 after 10 h); higher = more growth (less inhibition); conditions: arabinose 10000 nM; compound 0.1 mM; raw OD600 reference: median of DMSO wells 0.264, cell-free background 0.041
Where a name gives a salt, the structure may show the parent alone.
value_kind: growth
Answers are plain numbers.

Below: 7 compounds and their reported growth.
compound	growth
C[C@@H]1C[C@H]2[C@@H]3C[C@H](F)C4=CC(=O)C=C[C@]4(C)[C@@]3(F)[C@@H](O)C[C@]2(C)[C@@]1(O)C(=O)CO [Flumethasone]	0.256
N=C(N)NC(=O)c1nc(Cl)c(N)nc1N [Amiloride hydrochloride dihydrate]	0.257
OC(CCN1CCCCC1)(c1ccccc1)c1ccccc1 [Pridinol methanesulfonate salt]	0.28
CN1CCN2c3ncccc3Cc3ccccc3C2C1 (stereo not drawn) [Mirtazapine]	0.277
Cn1c(=O)c2c(ncn2CC(O)CO)n(C)c1=O (stereo not drawn) [Diprophylline]	0.249
C#C[C@]1(O)CC[C@H]2[C@@H]3CCC4=CC(=O)CC[C@@H]4[C@H]3CC[C@@]21C [Norethindrone]	0.221
NS(=O)(=O)c1cc(C2(O)NC(=O)c3ccccc32)ccc1Cl (stereo not drawn) [Chlorthalidone]	0.255

## Task Would you mind telling me what growth value was observed for CC1(C)NC(=O)N(c2ccc([N+](=O)[O-])c(C(F)(F)F)c2)C1=O [Nilutamide] ?
## Result 0.256

* * *

system: E. coli TESEC Mtb DapB; assay: growth (OD600 after 10 h); higher = more growth (less inhibition); details: arabinose induction (level): Low; compound 0.1 mM; raw OD600 reference: median of DMSO wells 0.227, cell-free background 0.041
Where a name gives a salt, the structure may show the parent alone.
I'd be grateful if you could share measured growth for these entries.
Numbers only.

molecule	growth
CN(Cc1cnc2nc(N)nc(N)c2n1)c1ccc(C(=O)N[C@@H](CCC(=O)O)C(=O)O)cc1 (racemic) [Amethopterin (R,S)]	0.204

# batch size: 2; output growth per entry
1. CCCc1cc(C(N)=S)ccn1 [Prothionamide]
2. Cc1ccc(S(=O)(=O)NC(=O)NN2CC3CCCC3C2)cc1 (stereo not given) [Gliclazide]

## Result
1. 0.221
2. 0.28

# batch size: 2; output growth per entry
1. CCOC(=O)[C@H](CCc1ccccc1)N[C@@H](C)C(=O)N1CCC[C@H]1C(=O)O [Enalapril maleate]
2. Clc1ccccc1CN1CCc2sccc2C1 [Ticlopidine hydrochloride]

## Result
1. 0.268
2. 0.23

# batch size: 2; output growth per entry
1. Cc1ccc(NC(=O)c2ccc(CN3CCN(C)CC3)cc2)cc1Nc1nccc(-c2cccnc2)n1 [Imatinib]
2. NC1CCN(c2nc3c(cc2F)c(=O)c(C(=O)O)cn3-c2ccc(F)cc2F)C1 (stereo not given) [Tosufloxacin hydrochloride]

## Result
0.217
0.0526

# batch size: 4; output growth per entry
1. Cc1ncc(CO)c(CO)c1O [Pyridoxine hydrochloride]
2. CC(=O)Oc1cc(C(F)(F)F)ccc1C(=O)O [Triflusal]
3. CN1CCN(C(c2ccccc2)c2ccccc2)CC1 [Cyclizine hydrochloride]
4. C=CCc1ccccc1OCC(O)CNC(C)C (stereo not given) [Alprenolol hydrochloride]

## Result
0.239
0.206
0.196
0.284

# batch size: 3; output growth per entry
1. CCN1CCC[C@H]1CNC(=O)c1c(OC)ccc(Br)c1OC [Remoxipride Hydrochloride]
2. CC(=O)CCCCn1c(=O)c2c(ncn2C)n(C)c1=O [Pentoxifylline]
3. Cc1c(-c2ccccc2)oc2c(C(=O)OCCN3CCCCC3)cccc2c1=O [Flavoxate hydrochloride]

## Result
1: 0.218; 2: 0.207; 3: 0.234

# batch size: 8; output growth per entry
1. CC(C(=O)O)c1ccc2c(c1)Cc1cccnc1O2 (stereo not given) [Pranoprofen]
2. CCN1CCC[C@H]1CNC(=O)c1c(O)c(Cl)cc(Cl)c1OC [Raclopride]
3. CC(=O)N[C@@H](CC(=O)N[C@@H](CCC(=O)O)C(=O)O)C(=O)O [Spaglumic acid]
4. CCCCc1ccc2[nH]c(NC(=O)OC)nc2c1 [Parbendazole]
5. CC(C(=O)O)c1ccc(C(=O)c2cccs2)cc1 (stereo not given) [Suprofen]
6. CCCC1O[C@@H]2C[C@H]3[C@@H]4CCC5=CC(=O)C=C[C@]5(C)[C@H]4[C@@H](O)C[C@]3(C)[C@]2(C(=O)CO)O1 (stereo not given in full) [Budesonide]
7. CCC(=O)O[C@@H](O[P@](=O)(CCCCc1ccccc1)CC(=O)N1C[C@H](C2CCCCC2)C[C@H]1C(=O)O)C(C)C [Fosinopril]
8. Cc1ccc(N(CC2=NCCN2)c2cccc(O)c2)cc1 [Phentolamine hydrochloride]

## Result
1. 0.198
2. 0.166
3. 0.216
4. 0.279
5. 0.196
6. 0.231
7. 0.226
8. 0.252

# batch size: 4; output growth per entry
1. COC(=O)C1=C(C)NC(C)=C(C(=O)OCC(C)C)C1c1ccccc1[N+](=O)[O-] (stereo not given) [Nisoldipine]
2. Nc1ccc(S(=O)(=O)c2ccc(N)cc2)cc1 [Dapsone]
3. CC(=O)O[C@]1(C(C)=O)CC[C@H]2[C@@H]3C=C(C)C4=CC(=O)CC[C@@H]4[C@H]3CC[C@@]21C [Nomegestrol acetate]
4. CC(C)NC[C@H](O)COc1ccc(CC(N)=O)cc1 [(S)-(-)-Atenolol]

## Result
1: 0.114; 2: 0.25; 3: 0.129; 4: 0.222

# batch size: 4; output growth per entry
1. COc1ccc(-c2cc(=S)ss2)cc1 [Anethole-trithione]
2. CCC(=O)[C@@]1(C)[C@H](C)C[C@H]2[C@@H]3CCC4=CC(=O)C=C[C@]4(C)[C@H]3[C@@H](O)C[C@@]21C [Rimexolone]
3. NNc1nncc2ccccc12 [Hydralazine hydrochloride]
4. N[C@@H]1CONC1=O [D-cycloserine]

## Result
1. 0.218
2. 0.209
3. 0.229
4. 0.245
